These data points were gathered from ChEMBL document CHEMBL1126594.

# assay_info: Plasma level by the renin inhibition assay from samples taken at 10 minutes from portal circulation by administering 10 mg/kg intraduodenally to the rat
Label scheme for concentration at 10 min: 1: < 90 ng/mL; 2: ≥ 90 ng/mL and < 1000 ng/mL; 3: ≥ 1000 ng/mL

>  <smiles_str>
CCN1C[C@@H]([C@H](O)[C@H](CC2CCCCC2)NC(=O)[C@H](Cc2cnc[nH]2)NC(=O)[C@@H](CC(=O)N2CCOCC2)Cc2ccccc2)OC1=O

>  <discrete_label>
2

$$$$
>  <smiles_str>
CC(C)C[C@H](O)[C@H](O)[C@H](CC1CCCCC1)NC(=O)[C@H](Cc1cscn1)NC(=O)[C@@H](CC(=O)CN1CCOCC1)Cc1ccccc1

>  <discrete_label>
3

$$$$
>  <smiles_str>
CCN1C[C@@H]([C@H](O)[C@H](CC2CCCCC2)NC(=O)[C@H](Cc2cc[nH]n2)NC(=O)[C@@H](CC(=O)N2CCOCC2)Cc2ccccc2)OC1=O

>  <discrete_label>
1

$$$$
>  <smiles_str>
COc1ccc(C[C@H](NC(=O)CC(C)(C)N)C(=O)N[C@@H](Cc2cnc[nH]2)C(=O)N[C@@H](CC2CCCCC2)[C@@H](O)[C@@H](O)CC(C)C)cc1

>  <discrete_label>
3

$$$$
>  <smiles_str>
CCN1C[C@@H]([C@H](O)[C@H](CC2CCCCC2)NC(=O)[C@H](Cc2cccs2)NC(=O)[C@H](Cc2ccc(OC)cc2)NC(=O)CC(C)(C)N)OC1=O

>  <discrete_label>
1

$$$$
>  <smiles_str>
CC(C)C[C@H](O)[C@H](O)[C@H](CC1CCCCC1)NC(=O)[C@H](Cc1ccn[nH]1)NC(=O)[C@@H](CC(=O)N1CCN(C)CC1)Cc1ccccc1

>  <discrete_label>
1

$$$$
>  <smiles_str>
CC(C)C[C@H](O)[C@H](O)[C@H](CC1CCCCC1)NC(=O)[C@H](Cc1c[nH]cn1)NC(=O)[C@@H](CC(=O)N1CCOCC1)Cc1ccccc1

>  <discrete_label>
2

$$$$
>  <smiles_str>
COc1ccc(C[C@H](NC(=O)C2CCN(C)CC2)C(=O)N[C@@H](Cc2cscn2)C(=O)N[C@@H](CC2CCCCC2)[C@@H](O)[C@@H](O)CC(C)C)cc1

>  <discrete_label>
3

$$$$
>  <smiles_str>
COc1ccc(C[C@H](NC(=O)CC(C)(C)N)C(=O)N[C@@H](Cc2cscn2)C(=O)N[C@@H](CC2CCCCC2)[C@@H](O)[C@@H](O)CC(C)C)cc1

>  <discrete_label>
2

$$$$
>  <smiles_str>
CCN1C[C@@H]([C@H](O)[C@H](CC2CCCCC2)NC(=O)[C@H](Cc2cscn2)NC(=O)[C@H](Cc2ccc(OC)cc2)NC(=O)CC(C)(C)N)OC1=O

>  <discrete_label>
2

$$$$
>  <smiles_str>
CCN1C[C@@H]([C@H](O)[C@H](CC2CCCCC2)NC(=O)[C@H](Cc2cscn2)NC(=O)[C@@H](CC(=O)N2CCOCC2)Cc2ccccc2)OC1=O

>  <discrete_label>
3

$$$$
>  <smiles_str>
CCCC[C@H](NC(=O)[C@@H](CC(=O)N1CCN(C)CC1)Cc1ccccc1)C(=O)N[C@@H](CC1CCCCC1)[C@@H](O)[C@@H](O)CC(C)C

>  <discrete_label>
3

$$$$

###

# assay_info: Plasma level by the renin inhibition assay from samples taken at 30 minutes from portal circulation by administering 10 mg/kg intraduodenally to the rat
Quick list: log10 concentration at 0.5 h per entry.
readout: log10 concentration at 0.5 h (log10 of the value in ng/mL)

>  <smiles_str>
CON(C)C[C@H](NC(=O)[C@@H](CC(=O)N1CCOCC1)Cc1ccccc1)C(=O)N[C@@H](CC1CCCCC1)[C@@H](O)[C@@H](O)CC(C)C

>  <readout>
log10 concentration at 0.5 h

>  <reported>
3.15

$$$$
>  <smiles_str>
CCN1C[C@@H]([C@H](O)[C@H](CC2CCCCC2)NC(=O)[C@H](Cc2cscn2)NC(=O)[C@@H](CC(=O)N2CCOCC2)Cc2ccccc2)OC1=O

>  <readout>
log10 concentration at 0.5 h

>  <reported>
3.04

$$$$
>  <smiles_str>
CC(C)C[C@H](O)[C@H](O)[C@H](CC1CCCCC1)NC(=O)[C@H](Cc1ccn[nH]1)NC(=O)[C@@H](CC(=O)N1CCN(C)CC1)Cc1ccccc1

>  <readout>
log10 concentration at 0.5 h

>  <reported>
1.43

$$$$
>  <smiles_str>
CC(C)C[C@H](O)[C@H](O)[C@H](CC1CCCCC1)NC(=O)[C@H](Cc1cscn1)NC(=O)[C@@H](CC(=O)CN1CCOCC1)Cc1ccccc1

>  <readout>
log10 concentration at 0.5 h

>  <reported>
3.26

$$$$
>  <smiles_str>
CCN1C[C@@H]([C@H](O)[C@H](CC2CCCCC2)NC(=O)[C@H](Cc2cccs2)NC(=O)[C@H](Cc2ccc(OC)cc2)NC(=O)CC(C)(C)N)OC1=O

>  <readout>
log10 concentration at 0.5 h

>  <reported>
1.65

$$$$
>  <smiles_str>
CCN1C[C@@H]([C@H](O)[C@H](CC2CCCCC2)NC(=O)[C@H](Cc2cnc[nH]2)NC(=O)[C@@H](CC(=O)N2CCOCC2)Cc2ccccc2)OC1=O

>  <readout>
log10 concentration at 0.5 h

>  <reported>
2.59

$$$$
>  <smiles_str>
COc1ccc(C[C@H](NC(=O)CC(C)(C)N)C(=O)N[C@@H](Cc2cscn2)C(=O)N[C@@H](CC2CCCCC2)[C@@H](O)[C@@H](O)CC(C)C)cc1

>  <readout>
log10 concentration at 0.5 h

>  <reported>
1.72

$$$$
>  <smiles_str>
CC(C)C[C@H](O)[C@H](O)[C@H](CC1CCCCC1)NC(=O)[C@H](Cc1cscn1)NC(=O)[C@H](Cc1ccccc1)N1CCOCC1

>  <readout>
log10 concentration at 0.5 h

>  <reported>
3.52

$$$$

###

# measurement_target: Renin (Homo sapiens)
# Sequence (P00797 whole entry): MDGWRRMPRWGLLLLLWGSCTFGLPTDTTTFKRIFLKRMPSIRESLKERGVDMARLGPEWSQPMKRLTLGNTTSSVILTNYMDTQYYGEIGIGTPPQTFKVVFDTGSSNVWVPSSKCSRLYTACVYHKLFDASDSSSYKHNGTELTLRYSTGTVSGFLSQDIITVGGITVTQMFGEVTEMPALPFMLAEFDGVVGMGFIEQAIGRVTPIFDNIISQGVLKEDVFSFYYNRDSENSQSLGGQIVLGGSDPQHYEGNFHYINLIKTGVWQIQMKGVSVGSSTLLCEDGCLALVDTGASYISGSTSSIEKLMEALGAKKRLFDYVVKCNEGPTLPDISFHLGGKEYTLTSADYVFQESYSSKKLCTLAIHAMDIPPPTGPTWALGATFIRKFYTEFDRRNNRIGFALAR
# assay_info: Inhibition of human plasma renin at pH 7.4
# Assay type: cell-free

>  <smiles_str>
COc1ccc(C[C@H](NC(=O)N2CCN(C)CC2)C(=O)N[C@@H](Cc2cscn2)C(=O)N[C@@H](CC2CCCCC2)[C@@H](O)[C@@H](O)CC(C)C)cc1

>  <IC50>
120 nM

$$$$
>  <smiles_str>
CC(C)C[C@H](O)[C@H](O)[C@H](CC1CCCCC1)NC(=O)[C@H](CN(C)C)NC(=O)[C@@H](CC(=O)N1CCOCC1)Cc1ccccc1

>  <IC50>
210 nM

$$$$
>  <smiles_str>
CCN1C[C@@H]([C@H](O)[C@H](CC2CCCCC2)NC(=O)[C@H](Cc2c[nH]cn2)NC(=O)[C@H](Cc2ccc(OC)cc2)NC(=O)CC(C)(C)N)OC1=O

>  <IC50>
17 nM

$$$$
>  <smiles_str>
CC(C)C[C@H](O)[C@H](O)[C@H](CC1CCCCC1)NC(=O)[C@H](Cc1c[nH]cn1)NC(=O)[C@@H](CC(=O)N1CCOCC1)Cc1ccccc1

>  <IC50>
1.6 nM

$$$$
>  <smiles_str>
CC(C)C[C@H](O)[C@H](O)[C@H](CC1CCCCC1)NC(=O)[C@H](Cn1ccnc1)NC(=O)[C@@H](CC(=O)N1CCOCC1)Cc1ccccc1

>  <IC50>
93 nM

$$$$
>  <smiles_str>
CC(C)C[C@H](O)[C@H](O)[C@H](CC1CCCCC1)NC(=O)[C@H](Cc1cn(C)cn1)NC(=O)[C@@H](CC(=O)N1CCOCC1)Cc1ccccc1

>  <IC50>
110 nM

$$$$
>  <smiles_str>
CCN1C[C@@H]([C@H](O)[C@H](CC2CCCCC2)NC(=O)[C@H](Cc2cscn2)NC(=O)[C@H](Cc2ccc(OC)cc2)NC(=O)CC(C)(C)N)OC1=O

>  <IC50>
39 nM

$$$$
>  <smiles_str>
CCN1C[C@@H]([C@H](O)[C@H](CC2CCCCC2)NC(=O)[C@H](Cc2cccs2)NC(=O)[C@H](Cc2ccc(OC)cc2)NC(=O)CC(C)(C)N)OC1=O

>  <IC50>
69 nM

$$$$
>  <smiles_str>
CC(C)C[C@H](O)[C@H](O)[C@H](CC1CCCCC1)NC(=O)[C@H](Cc1cscn1)NC(=O)[C@@H](CC(=O)CN1CCOCC1)Cc1ccccc1

>  <IC50>
25 nM

$$$$
>  <smiles_str>
CC(C)C[C@H](O)[C@H](O)[C@H](CC1CCCCC1)NC(=O)[C@H](Cc1cscn1)NC(=O)[C@@H](CC(=O)N1CCN(C)CC1)Cc1ccccc1

>  <IC50>
18 nM

$$$$
>  <smiles_str>
COc1ccc(C[C@H](NC(=O)C2CCN(C)CC2)C(=O)N[C@@H](Cc2cscn2)C(=O)N[C@@H](CC2CCCCC2)[C@@H](O)[C@@H](O)CC(C)C)cc1

>  <IC50>
170 nM

$$$$
>  <smiles_str>
COc1ccc(C[C@H](NC(=O)CC(C)(C)N)C(=O)N[C@@H](Cc2cscn2)C(=O)N[C@@H](CC2CCCCC2)[C@@H](O)[C@@H](O)CC(C)C)cc1

>  <IC50>
33 nM

$$$$
>  <smiles_str>
CC(C)C[C@H](O)[C@H](O)[C@H](CC1CCCCC1)NC(=O)[C@H](CN=[N+]=[N-])NC(=O)[C@@H](CC(=O)N1CCOCC1)Cc1ccccc1

>  <IC50>
11 nM

$$$$
>  <smiles_str>
CC(C)C[C@H](O)[C@H](O)[C@H](CC1CCCCC1)NC(=O)[C@H](Cc1c[nH]cn1)NC(=O)[C@@H](CC(=O)N1CCN(C)CC1)Cc1ccccc1

>  <IC50>
5.4 nM

$$$$
>  <smiles_str>
CC(C)C[C@H](O)[C@H](O)[C@H](CC1CCCCC1)NC(=O)[C@H](Cc1cscn1)NC(=O)[C@H](Cc1ccccc1)N1CCOCC1

>  <IC50>
1600 nM

$$$$
>  <smiles_str>
CC(C)C[C@H](NC(=O)[C@@H](CC(=O)N1CCN(C)CC1)Cc1ccccc1)C(=O)N[C@@H](CC1CCCCC1)[C@@H](O)[C@@H](O)CC(C)C

>  <IC50>
37 nM

$$$$
>  <smiles_str>
CCCC[C@H](NC(=O)[C@@H](CC(=O)N1CCN(C)CC1)Cc1ccccc1)C(=O)N[C@@H](CC1CCCCC1)[C@@H](O)[C@@H](O)CC(C)C

>  <IC50>
25 nM

$$$$
>  <smiles_str>
CC(C)C[C@H](O)[C@H](O)[C@H](CC1CCCCC1)NC(=O)[C@H](Cc1ccn[nH]1)NC(=O)[C@@H](CC(=O)N1CCOCC1)Cc1ccccc1

>  <IC50>
3.5 nM

$$$$
